Data origin: paper doi:10.1101/2024.09.02.610768

# subject-of-test: the molecule itself
# protocol: SEC-MALS
experimental-readout: stoichiometry N
Number only, please.

Recorded results for 3 proteins are shown here.
FrzCD^ΔH1ΔH2 (receptor, Myxococcus xanthus, UniProt P43500 1-417, looked up) MSLDTPNEKPAGKARARKAPASKAGATNAAVREINEAALRLSSSANQVLAASTQHETSSTEQAAAIHETTATMEELKHASAQIAENAGSVARVAEETLGAARAGRGAIGEFIQAMQQIRSDGVAVADSIAKLSKRVERIGTVVEVIDEIADRSDLLALNAALEGSRAGEAGKGFSIVAAEMRRLAENVLDSTKEIKNLITEIREATAAAAGAAEASKSATESGEKLGAVAAQAVEGILAGVQETSDAARVINLATQQQRTATEQVVASMAEIEDVTRQTTQASKQATGAAAELTQLAGRLAELIKRFKAD: 4
FrzCD^ΔH1 (receptor, Myxococcus xanthus, UniProt P43500 1-417, looked up) MSLDTPNEKPAGKARARKAPASKAGATNAARKHVAAQEIDQALDALIGLVREGDLSRWNTTTEDPQLGPLLEGFGKVIETLRTFVREINEAALRLSSSANQVLAASTQHETSSTEQAAAIHETTATMEELKHASAQIAENAGSVARVAEETLGAARAGRGAIGEFIQAMQQIRSDGVAVADSIAKLSKRVERIGTVVEVIDEIADRSDLLALNAALEGSRAGEAGKGFSIVAAEMRRLAENVLDSTKEIKNLITEIREATAAAAGAAEASKSATESGEKLGAVAAQAVEGILAGVQETSDAARVINLATQQQRTATEQVVASMAEIEDVTRQTTQASKQATGAAAELTQLAGRLAELIKRFKAD: 4
FrzCD^ΔMA (domain or fragment, Myxococcus xanthus, UniProt P43500 1-137, looked up) MSLDTPNEKPAGKARARKAPASKAGATNAASTSSSTKAITDTLLTVLSGNLQARVPKELVGESGVELAHLLNQVLDQFAASEHRKHVAAQEIDQALDALIGLVREGDLSRWNTTTEDPQLGPLLEGFGKVIETLRTF: 2

Lab book: stoichiometry N of FrzCD^ΔH2 (receptor, Myxococcus xanthus, UniProt P43500 1-417, looked up) MSLDTPNEKPAGKARARKAPASKAGATNAASTSSSTKAITDTLLTVLSGNLQARVPKELVGESGVELAHLLNQVLDQFAASEHVREINEAALRLSSSANQVLAASTQHETSSTEQAAAIHETTATMEELKHASAQIAENAGSVARVAEETLGAARAGRGAIGEFIQAMQQIRSDGVAVADSIAKLSKRVERIGTVVEVIDEIADRSDLLALNAALEGSRAGEAGKGFSIVAAEMRRLAENVLDSTKEIKNLITEIREATAAAAGAAEASKSATESGEKLGAVAAQAVEGILAGVQETSDAARVINLATQQQRTATEQVVASMAEIEDVTRQTTQASKQATGAAAELTQLAGRLAELIKRFKAD noted as 4
